Values were extracted from paper PMC6061170.

- Target of assay: dopamine D2 receptors (Rattus norvegicus, UniProt P61169)
- Sequence (P61169 1-415 isoform P61169-2): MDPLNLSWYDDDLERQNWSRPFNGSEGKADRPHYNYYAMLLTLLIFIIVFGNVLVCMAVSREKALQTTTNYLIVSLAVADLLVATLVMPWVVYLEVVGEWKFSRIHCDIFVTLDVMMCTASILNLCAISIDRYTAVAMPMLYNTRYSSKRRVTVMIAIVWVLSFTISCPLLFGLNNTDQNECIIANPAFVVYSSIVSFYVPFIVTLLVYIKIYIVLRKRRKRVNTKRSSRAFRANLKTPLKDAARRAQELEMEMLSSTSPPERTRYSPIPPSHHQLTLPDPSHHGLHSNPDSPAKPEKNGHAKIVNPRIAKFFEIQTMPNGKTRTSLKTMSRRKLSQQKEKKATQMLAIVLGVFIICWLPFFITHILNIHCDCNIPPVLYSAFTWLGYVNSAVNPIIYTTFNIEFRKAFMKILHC
- Procedure text: Radioligand binding assay, D2 receptors
- Condition info: rat brain tissues; read-out: D2 Ki [nM] ± SEM
Observable: Ki

# Compound, Observable, Assay result
data = [
    ("COc1cc(C(=O)NC2CC3CCC(C2)N3Cc2ccccn2)nc2ccccc12 (centres unmarked) [Compound 12o]", "Ki", "> 10000 nM"),
]

According to the records, this compound Cc1cccc(CN2C3CCC2CC(NC(=O)c2ccc4ncccc4c2)C3)c1 (centres unmarked) [Compound 12g] displays Ki of 275 nM

According to the records, this compound COc1cc(C(=O)NC2CC3CCC(C2)N3Cc2ccccc2C)nc2ccccc12 (centres unmarked) [Compound 12d] displays Ki of > 10000 nM

According to the records, this compound O=C(NC1CC2CCC(C1)N2Cc1ccccn1)c1ccc2ccccc2n1 (centres unmarked) [Compound 12l] displays Ki of 616 nM

According to the records, this compound COc1cc(C(=O)NC2CC3CCC(C2)N3Cc2cccnc2)nc2ccccc12 (centres unmarked) [Compound 12s] displays Ki of > 10000 nM

* * *

- Target of assay: serotonin 5-HT1A receptors (Rattus norvegicus)
- Construct: from tissue; host or cells: rat brain tissues
- Procedure text: Radioligand binding assay, 5-HT1A receptors
- Condition info: rat brain tissues; read-out: 5-HT1A IC50 [nM] ± SEM
Readings of IC50 for the listed compounds
Please state the figure in nM; there is no need to write the unit.

# Compound, IC50 (nM)
records = [
    ("COc1cc(C(=O)NC2CC3CCC(C2)N3Cc2ccncc2)nc2ccccc12 (stereo not drawn) [Compound 12w]", 942),
    ("O=C(NC1CC2CCC(C1)N2Cc1ccccn1)c1cnc2ccccc2c1 (stereo not drawn) [Compound 12m]", 850),
    ("Cc1cccc(CN2C3CCC2CC(NC(=O)c2ccc4ncccc4c2)C3)c1 (stereo not drawn) [Compound 12g]", 867),
]

Attention now turns to another entry.
According to the records, this compound Cc1cccc(CN2C3CCC2CC(NC(=O)c2ccc4ccccc4n2)C3)c1 (stereo not drawn) [Compound 12e] displays IC50 of 166

* * *

Readings of melting point for the listed molecules

Field: example entries. Status: answers known.
# Molecule, Observable, Assay result
data = [
    ("Nc1cccc(CN2C3CCC2CC(NC(=O)c2ccc4ccccc4c2)C3)c1 (centres unmarked) [Compound 19b]", "melting point", "165.4 to 166.6 °C"),
    ("Cc1ccccc1CN1C2CCC1CC(NC(=O)c1ccc3ccccc3n1)C2 (centres unmarked) [Compound 12a]", "melting point", "120.8 to 121.4 °C"),
    ("O=C(NC1CC2CCC(C1)N2Cc1cccnc1)c1ccc2ncccc2c1 (centres unmarked) [Compound 12r]", "melting point", "158.3 to 162.5 °C"),
    ("Cc1ccc(CN2C3CCC2CC(NC(=O)c2ccc4ncccc4c2)C3)cc1 (centres unmarked) [Compound 12k]", "melting point", "211.9 to 213 °C"),
    ("Cc1ccccc1CN1C2CCC1CC(NC(=O)c1cnc3ccccc3c1)C2 (centres unmarked) [Compound 12b]", "melting point", "179.2 to 180.2 °C"),
]

According to the records, this molecule O=C(NC1CC2CCC(C1)N2Cc1ccccn1)c1ccc2ccccc2n1 (centres unmarked) [Compound 12l] displays melting point of 150.2 to 151 °C

According to the records, this molecule Cc1cccc(CN2C3CCC2CC(NC(=O)c2ccc4ncccc4c2)C3)c1 (centres unmarked) [Compound 12g] displays melting point of 174.4 to 175.5 °C

According to the records, this molecule Nc1ccccc1CN1C2CCC1CC(NC(=O)c1ccc3ccccc3c1)C2 (centres unmarked) [Compound 19a] displays melting point of 172.7 to 173.3 °C

* * *

Readings of Immobility time (s) Mean ± SEM for the listed compounds
- System: Albino Swiss mice
- Procedure text: Forced swim test
- Condition info: 1.25 mg/kg i.p. 30 min before test; last 4 min of session
Please state the figure in s; there is no need to write the unit.

Field: example entries. Status: answers known.
# Compound, Immobility time (s) Mean ± SEM
rows = [
    ("Nc1ccccc1CN1C2CCC1CC(NC(=O)c1ccc3ccccc3c1)C2 (stereo not shown) [Compound 19a]", 120.00),
    ("COc1cc(C(=O)NC2CC3CCC(C2)N3Cc2cccc(C)c2)nc2ccccc12 (stereo not shown) [Compound 12h]", 134.78),
    ("Cc1ccc(CN2C3CCC2CC(NC(=O)c2ccc4ccccc4n2)C3)cc1 (stereo not shown) [Compound 12i]", 132.00),
]

Attention now turns to another entry.
According to the records, this compound COc1cc(C(=O)NC2CC3CCC(C2)N3Cc2ccccc2C)nc2ccccc12 (stereo not shown) [Compound 12d] displays Immobility time (s) Mean ± SEM of 144.22

* * *

Readings of IC50 for the listed molecules
- Target of assay: dopamine D2 receptors (Rattus norvegicus, UniProt P61169)
- Procedure text: Radioligand binding assay, D2 receptors
- Condition info: rat brain tissues; read-out: D2 IC50 [nM] ± SEM

According to the records, this molecule Nc1ccc(CN2C3CCC2CC(NC(=O)c2ccc4ccccc4c2)C3)cc1 (centres unmarked) [Compound 19c] displays IC50 of 682 nM

According to the records, this molecule O=C(NC1CC2CCC(C1)N2Cc1ccccn1)c1cnc2ccccc2c1 (centres unmarked) [Compound 12m] displays IC50 of > 10000 nM

According to the records, this molecule COc1cc(C(=O)NC2CC3CCC(C2)N3Cc2cccnc2)nc2ccccc12 (centres unmarked) [Compound 12s] displays IC50 of > 10000 nM

* * *

- Target of assay: serotonin 5-HT2A receptors (Rattus norvegicus, UniProt P14842)
- Construct: from tissue; host or cells: rat brain tissues
- Sequence (P14842 whole entry): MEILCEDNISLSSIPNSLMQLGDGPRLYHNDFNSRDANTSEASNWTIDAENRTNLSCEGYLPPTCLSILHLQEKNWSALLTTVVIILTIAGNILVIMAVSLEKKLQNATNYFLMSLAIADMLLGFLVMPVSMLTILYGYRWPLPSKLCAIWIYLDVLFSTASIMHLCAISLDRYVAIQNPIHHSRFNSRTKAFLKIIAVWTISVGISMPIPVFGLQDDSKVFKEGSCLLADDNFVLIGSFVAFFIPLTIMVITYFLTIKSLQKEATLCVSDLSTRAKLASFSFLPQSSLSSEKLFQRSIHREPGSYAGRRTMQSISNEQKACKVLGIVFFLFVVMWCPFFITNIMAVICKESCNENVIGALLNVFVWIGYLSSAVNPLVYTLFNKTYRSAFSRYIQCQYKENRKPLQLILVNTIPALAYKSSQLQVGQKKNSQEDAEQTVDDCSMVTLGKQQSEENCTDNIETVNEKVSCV
- Procedure text: Radioligand binding assay, 5-HT2A receptors
pKi: −log10 of the molar value.
Observable: pKi

Field: example entries. Status: answers known.
# Molecule, pKi
measured = [
    ("Nc1ccccc1CN1C2CCC1CC(NC(=O)c1ccc3ccccc3c1)C2 (stereo not drawn) [Compound 19a]", 7.33),
    ("O=C(NC1CC2CCC(C1)N2Cc1cccnc1)c1cnc2ccccc2c1 (stereo not drawn) [Compound 12q]", "< 5.00"),
    ("O=C(NC1CC2CCC(C1)N2Cc1ccncc1)c1ccc2ncccc2c1 (stereo not drawn) [Compound 12v]", "< 5.00"),
    ("O=C(NC1CC2CCC(C1)N2Cc1ccncc1)c1cnc2ccccc2c1 (stereo not drawn) [Compound 12u]", 5.91),
    ("O=C(NC1CC2CCC(C1)N2Cc1ccccn1)c1ccc2ncccc2c1 (stereo not drawn) [Compound 12n]", "< 5.00"),
]

Attention now turns to another entry.
According to the records, this molecule O=C(NC1CC2CCC(C1)N2Cc1cccnc1)c1ccc2ncccc2c1 (stereo not drawn) [Compound 12r] displays pKi of < 5.00

* * *

- Target of assay: dopamine D2 receptors (Rattus norvegicus, UniProt P61169)
- Procedure text: Radioligand binding assay, D2 receptors
pIC50: −log10 of the molar value.
Readings of pIC50 for the listed molecules

# Molecule, Target of assay, pIC50
measured = [
    ("O=C(NC1CC2CCC(C1)N2Cc1cccnc1)c1cnc2ccccc2c1 (stereo not drawn) [Compound 12q]", "dopamine D2 receptors (Rattus norvegicus, UniProt P61169)", "< 5.00"),
    ("O=C(NC1CC2CCC(C1)N2Cc1ccccn1)c1ccc2ncccc2c1 (stereo not drawn) [Compound 12n]", "dopamine D2 receptors (Rattus norvegicus, UniProt P61169)", "< 5.00"),
    ("O=C(NC1CC2CCC(C1)N2Cc1ccncc1)c1ccc2ncccc2c1 (stereo not drawn) [Compound 12v]", "dopamine D2 receptors (Rattus norvegicus, UniProt P61169)", "< 5.00"),
    ("O=C(NC1CC2CCC(C1)N2Cc1ccncc1)c1cnc2ccccc2c1 (stereo not drawn) [Compound 12u]", "dopamine D2 receptors (Rattus norvegicus, UniProt P61169)", "< 5.00"),
    ("O=C(NC1CC2CCC(C1)N2Cc1cccnc1)c1ccc2ncccc2c1 (stereo not drawn) [Compound 12r]", "dopamine D2 receptors (Rattus norvegicus, UniProt P61169)", "< 5.00"),
]

Attention now turns to another entry.
According to the records, this molecule Cc1ccc(CN2C3CCC2CC(NC(=O)c2ccc4ccccc4n2)C3)cc1 (stereo not drawn) [Compound 12i] displays pIC50 of 7.43

* * *

- Target of assay: serotonin 5-HT1A receptors (Rattus norvegicus, UniProt P19327)
- Construct: from tissue; host or cells: rat brain tissues
- Sequence (P19327 whole entry): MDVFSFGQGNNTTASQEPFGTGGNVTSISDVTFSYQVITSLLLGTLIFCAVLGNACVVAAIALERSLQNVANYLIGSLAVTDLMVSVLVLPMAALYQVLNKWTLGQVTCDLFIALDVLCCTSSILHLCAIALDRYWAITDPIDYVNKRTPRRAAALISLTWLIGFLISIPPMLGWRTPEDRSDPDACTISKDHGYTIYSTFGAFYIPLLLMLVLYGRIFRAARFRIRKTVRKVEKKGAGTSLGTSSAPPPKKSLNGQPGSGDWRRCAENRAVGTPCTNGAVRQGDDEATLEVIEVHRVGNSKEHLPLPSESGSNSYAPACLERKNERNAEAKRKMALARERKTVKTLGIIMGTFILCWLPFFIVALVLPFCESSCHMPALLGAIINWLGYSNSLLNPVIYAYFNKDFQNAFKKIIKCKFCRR
- Procedure text: Radioligand binding assay, 5-HT1A receptors
- Condition info: rat brain tissues; read-out: 5-HT1A Ki [nM] ± SEM
Observable: Ki (nM)
Please state the figure in nM; there is no need to write the unit.

Field: example entries. Status: answers known.
# Compound, Ki [nM]
data = [
    ("Nc1ccc(CN2C3CCC2CC(NC(=O)c2ccc4ccccc4c2)C3)cc1 (stereo not shown) [Compound 19c]", 1340),
    ("O=C(NC1CC2CCC(C1)N2Cc1ccncc1)c1ccc2ccccc2n1 (stereo not shown) [Compound 12t]", 809),
    ("COc1cc(C(=O)NC2CC3CCC(C2)N3Cc2ccncc2)nc2ccccc12 (stereo not shown) [Compound 12w]", 314),
]

According to the records, this compound COc1cc(C(=O)NC2CC3CCC(C2)N3Cc2ccccn2)nc2ccccc12 (stereo not shown) [Compound 12o] displays Ki of 151
